System: 786-0
Assay: NCI tumour cell line growth inhibition, 48 h
Activity calls are given as the source filed them. Cut-off read from the data, not from the text of the source: active = GI50 up to about 1.1 µM and inactive = higher.
Classes used: active, inactive

{"Compound": "COc1cc2oc(=O)cc(C)c2cc1OC", "Answer Label": "inactive"}
{"Compound": "Cc1ccc(S(=O)(=O)N2CCCSCCSCCCSCC2)cc1", "Answer Label": "inactive"}
{"Compound": "COc1c2ccccc2c(OC)c2nc(C)ccc12", "Answer Label": "inactive"}
{"Compound": "O=C(O)CC/C(=N\\Nc1nsc2ccccc12)c1ccc(Cl)cc1", "Answer Label": "inactive"}
{"Compound": "COc1c(C=O)c2c(c(OC)c1OC)-c1ccc(OC)c(=O)cc1[C@@H](NC(C)=O)CC2", "Answer Label": "active"}
{"Compound": "O=C(/C=C/c1ccc(Cl)c(Cl)c1)Oc1ccc(/C=C2\\CCCCC2=O)cc1", "Answer Label": "inactive"}
{"Compound": "COC(=O)[C@H](Cc1ccccc1)NC(=O)N1CCN(C(=O)N[C@@H](Cc2ccccc2)C(=O)OC)CCN(C(=O)N[C@@H](Cc2ccccc2)C(=O)OC)CC1", "Answer Label": "inactive"}
{"Compound": "Oc1ccc(-c2nn3c(CCCCCCCCc4nnc5sc(-c6ccc(O)cc6)nn45)nnc3s2)cc1", "Answer Label": "inactive"}
{"Compound": "O=C(NN1C(=O)CS(=O)(=O)C1c1cccc(F)c1)c1ccncc1 (stereo not given)", "Answer Label": "inactive"}
{"Compound": "O=C(Nc1ccccc1)Nn1c(-c2cccs2)nc2ccc(I)cc2c1=O", "Answer Label": "inactive"}
